- Tested on: IL-6
- protocolDetails: In vitro measurement of IL-6 in human PBMC
- Format: cell-based
- experimentalSetup: Conc. 0.1 μM, LPS
Here the recorded inhibition at 0.1 µM is given for each entry.
Just so you know, I need the unit written after the number.

Use the examples below as a reference point.
CNc1nc(-c2ccncc2)nc(SC)c1C(=O)Nc1ccc(OC)cc1 28.2%
CNc1nc(-c2ccc(S(N)(=O)=O)cc2)nc(NC)c1C(=O)Nc1ccc(C)cc1 21.5%
CNc1nc(-c2ccc(SC)cc2)nc(SC)c1C(=O)Nc1ccc(C)cc1 14.9%

Could you now look at the following molecule, please?
// query Entry `CCCCc1ccc(NC(=O)c2c(NC)nc(-c3ccc(SC)cc3)nc2SC)cc1` : reported inhibition at 0.1 µM = ?
// result 26.6%
